Target: T1, cynomolgus CCR8 (cynomolgus, UniProt G7NYJ2 1-355)
T1 construct: whole, on cells
T1 sequence (G7NYJ2 entry or part of it): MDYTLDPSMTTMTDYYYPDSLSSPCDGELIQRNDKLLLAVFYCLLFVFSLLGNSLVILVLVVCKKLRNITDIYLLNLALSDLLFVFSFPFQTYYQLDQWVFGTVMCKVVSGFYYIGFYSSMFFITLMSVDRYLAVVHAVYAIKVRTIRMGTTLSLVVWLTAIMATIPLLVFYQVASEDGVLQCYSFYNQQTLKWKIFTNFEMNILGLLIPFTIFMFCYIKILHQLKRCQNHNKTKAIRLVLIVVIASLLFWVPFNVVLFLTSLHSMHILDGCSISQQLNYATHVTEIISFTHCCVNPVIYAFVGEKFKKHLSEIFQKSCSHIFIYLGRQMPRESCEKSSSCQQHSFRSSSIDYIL
Assay: FACS on HEK293-cynomolgus CCR8 cells
Experimental: Binding affinities of NG site removed antibodies were determined on human CCR8 and cynomolgus CCR8 overexpression cells. Briefly, CFSE labeled HEK293-human CCR8 cells or CFSE labeled HEK293-cynomolgus CCR8 cells were mixed with HEK293 cells. The mixed ratio was 1:1. […] Data was plotted as the logarithm of antibody concentration versus mean fluorescence signals. EC₅₀ values were calculated in GraphPad Prism 8 (GraphPad Software) using a log (agonist) vs. response-Variable slope (4 parameters) curve fit.
observable: Max MFI
Field note: include the unit after the figure.

Return Max MFI (reported value) for this binder: 149F2C10_G29A (antibody, V domains shown, NG site removed variant of 149F2C10) VH: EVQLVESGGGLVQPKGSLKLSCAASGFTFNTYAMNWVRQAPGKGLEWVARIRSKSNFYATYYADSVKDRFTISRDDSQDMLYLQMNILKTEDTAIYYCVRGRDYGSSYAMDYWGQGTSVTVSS VL: DIVMTQAAPSVPVTPGESVSISCRSSKSLLHSNANTYLYWFLQRPGQSPQLLIYRMSNLASGVPDRFSGSGSGTAFTLRISRVEAEDVGVYYCMQHLEYPLTFGAGTKLELK
4720 MFI
